These measurements were taken from paper PMC6072878.

assay: Cell viability of RAW264.7 macrophages (MTT method); format: cell-based, mouse; details: mouse, Table S9 of the supplement; read-out: CC50 (M), 50% cytotoxic concentration
Reported CC50 at 24 h is given for each of the following compounds.

[
  {
    "compound": "C=C1C2(C)CC3C4(C)C(O)C5CC(C)(OC5=O)C4CCC3(C)C13C(=O)OC(C)C3(O)C2=O (stereo not drawn)",
    "CC50 at 24 h": "> 5e-05 M"
  },
  {
    "compound": "C=C1[C@@]2(C)C[C@H]3[C@]4(C)[C@H](O)[C@@H]5C[C@@](C)(OC5=O)[C@H]4CC[C@]3(C)[C@]1(C(=O)OC)C(=O)[C@@](C)(O)C2=O",
    "CC50 at 24 h": "> 5e-05 M"
  },
  {
    "compound": "C=C1[C@@]2(C)C[C@H]3[C@]4(C)C=CC(=O)OC(C)(C)[C@H]4CC[C@]3(C)[C@]1(C(=O)OC)C(=O)[C@@](C)(O)C2=O",
    "CC50 at 24 h": "> 5e-05 M"
  }
]

* * *

assay: Cell viability of RAW264.7 macrophages (MTT method); format: cell-based, mouse; conditions: mouse, RAW264.7, MTT; Table 3; read-out: CC50 (μM) Cytotoxicity
Reported CC50 at 24 h is given for each of the following molecules.
outcome.measure: CC50 at 24 h

[
  {
    "molecule": "C=C1[C@@]2(C)C[C@H]3[C@]4(C)C=CC(=O)OC(C)(C)[C@H]4CC[C@]3(C)[C@]1(C(=O)OC)C(=O)[C@@](C)(O)C2=O",
    "result": "> 100 µM"
  },
  {
    "molecule": "C=C1[C@@]2(C)C[C@H]3[C@]4(C)[C@H](O)[C@@H]5C[C@@](C)(OC5=O)[C@H]4CC[C@]3(C)[C@]1(C(=O)OC)C(=O)[C@@](C)(O)C2=O",
    "result": "> 100 µM"
  },
  {
    "molecule": "C=C1C2(C)CC3C4(C)C(O)C5CC(C)(OC5=O)C4CCC3(C)C13C(=O)OC(C)C3(O)C2=O (stereo not drawn)",
    "result": "> 100 µM"
  }
]

* * *

test: Cytotoxic activity toward tumor cell line U937; type: cell-based; conditions: human, U937 tumor cells

[
  {
    "molecule": "C=C1[C@@]2(C)C[C@H]3[C@](C)(CCC(=O)OC)[C@@H](C(C)(C)O)CC[C@]3(C)[C@]1(C(=O)OC)C(=O)[C@@](C)(O)C2=O",
    "IC50": "> 10 µM"
  },
  {
    "molecule": "C=C1C2(C)CC3C4(C)C=CC(=O)OC(C)(C)C4CCC3(C)C13C(=O)OC(C)C3(O)C2=O (stereo not drawn)",
    "IC50": "> 10 µM"
  },
  {
    "molecule": "C=C1[C@@]2(C)C[C@H]3[C@](C)(CCC(=O)OC)[C@@H](C(C)(C)O)CC[C@]3(C)[C@@]13C(=O)O[C@@H](C)[C@@]3(O)C2=O",
    "IC50": "> 10 µM"
  }
]

* * *

system: NO production in LPS-induced RAW 264.7 macrophages; assay: Inhibition of LPS induced NO production in RAW264.7 macrophages (Griess reagent); format: cell-based, mouse; settings: Mus musculus, RAW264.7, Table S9 of the supplement; read-out: IC50 (M), 50% inhibitory concentration

[
  {
    "structure.smiles.string": "C=C1[C@@]2(C)C[C@H]3[C@](C)(CCC(=O)OC)[C@@H](C(C)(C)O)CC[C@]3(C)[C@]1(C(=O)OC)C(=O)[C@@](C)(O)C2=O",
    "measured.on": "NO production in LPS-induced RAW 264.7 macrophages",
    "IC50": "> 5e-05 M"
  },
  {
    "structure.smiles.string": "C=C1[C@@]2(C)C[C@H]3[C@](C)(CCC(=O)OC)[C@@H](C(C)(C)O)CC[C@]3(C)[C@@]13C(=O)O[C@H](C)[C@@]3(O)C2=O",
    "measured.on": "NO production in LPS-induced RAW 264.7 macrophages",
    "IC50": "> 5e-05 M"
  },
  {
    "structure.smiles.string": "C=C1[C@@]2(C)C[C@H]3[C@](C)(CCC(=O)OC)[C@@H](C(C)(C)O)CC[C@]3(C)[C@@]13C(=O)O[C@@H](C)[C@@]3(O)C2=O",
    "measured.on": "NO production in LPS-induced RAW 264.7 macrophages",
    "IC50": "> 5e-05 M"
  }
]
